test: label from the status in PepcDB records
experimental_readout: protein production

# input Consider the sequence shown here: `MKKLFFIFLGSCTFALGTLGIFLPLLPTTGFYLLTAFFWMRSSDKLYNKFLASSYYQKYIQEAFFEKKITRKGKWKLFISMFLLFAIPCLIVRNTLMTTTLAIVYLAHVIGLSWYWRPKKKALELDQE` What is its recorded protein production?
# output failed

# input Bench note: what protein production did `MRVDIWSDVVCPFCYIGKKRLEHVAAEAGIELDVHWHSFELDPDAPTSHDTSNTERLAKKYGRTFEEMQEMQQNIASMAAQEGIDFQWQKANSGNSFNAHRIIHLAQSKGLGNEAEEAFFHAYMTEGLAIGEREVVEEIASRIGLDHAEVEFVLDSNELSDFVRHDEKIAHEQLNISGVPFFVFDQKLALSGAQPKEVFLQVLQKALTQRENDAVAEASSDAVCSDDSCDIPQKS` show?
# output failed

# input Form field: reported protein production of `VSERKAMQKRLTRRERRFRMMFEGHSAPMLLIDEETGAIEQANAAAVEFYGYERDILMSMSIQDINQLPAEEVARERREAAEDGDEFLFEHELASGAVRTVRVLSAPIPNLDRAGTLLFSVIHD`
# output failed

# input Could you tell me which protein production is on file for `MSLPANKLVFVGGMGAGKTTAVRSISDVEPVSTEMPLSQDAYGDKTYTTVALDYSSIELEDGELLHVYGVPGQKYLDFMWPLVCDGALGVIVLTNARDPQMLTATLELLREFSQIAPEASLAVGITMTDEVEDFLVPPFREALVAEGFRVPVMRVDARSATQITFLVKSLLSYRYTSATSLEHHHHHH` ?
# output not failed

# input So what does the record say about protein production for `MTQAFSRVRFIMTQPSHPGNVGSAARAIKTMGFGELVLVAPRFPDMTAQPEAVALASGALDVLERAAVHDTLEEALAPVTLAFALTTRVRDLGPPPCDIREAAGLARRHLDDTEAGVVAIVLGTERAGLTNAQIELCHRICHIPANPQYSSLNVAQALQLAAWELRYALLAGTGQSLLPASSAQQANPGAAPADGAAVQALLAHWEQALVAVGFLDPAHPKKLMPRMKHLLTRSALSRDEVDMLRGVCTAMIAPNRPK` ?
# output not failed

# input Recorded protein production for `MEITDVRLRRVETDGRMKAISSITIDGEFVIHDIRVIDGNEGLFVAMPSKRTPDGEFRDIAHPINSGTRAKIQEAVLAAYEVADEPAVNEESSADESVVEEN` , please?
# output failed

Further cases:
# input Which protein production is listed for `AIANDDRATAFNALKNKTVCVQGDGNSRQFYHALVEILSNHSSAIPVNKNGNDFCNAPFAQCPQDTYYFDLVDKSDNLSVKLYWRWAPEFSDIECPMKVPSGFTPGSNYSFPSGPDTLSCDINIMDAGQWELFEKDANVTTAGYSQGVSNLSKCFSSDKSAKYFWIAAYALTPEQLQIHLPYNNTDVERINEVATQGLNSTACVLNGYDVTVNAFNDTKEATTDGIHYLGWINEQVVHLFFNAVTNSSAPTVPSSNVSVTSPNVQLGQVPNLNPSTTNSFLPVQTIVTVPSSSATSASSGLNFGGSSQGGGSGIPQL` ?
# output failed

# input Fill in: protein production of `MEFPDLTVEIKGPDVVGVNKLAEYEVHVKNLGGIGVPSTKVRVYINGTLYKNWTVSLGPKEEKVLTFNWTPTQEGMYRINATVDEENTVVELNENNNVATFLEHHHHHH` is ___
# output not failed

# input Which measured protein production value corresponds to `MAGLPGSVALIIVATAVIWKGSAYFERAAERLSKYYGLPVAVHGAIVVAVGSSFPEISSVVISTVIHDEFSLGVGAIVGSAIFNLLVIPALAALSSEELRSTRDIVHKDAQFYIISVLILFIVFALGATYVPGGTNRAAILTPTLVAVPLMAYGIYVFLHQQDASEHVADETHSVRPGREWGMLGVGLVIITVGVEGMVQGALSLGVIFDTPTFLWGLTVIAAGTSLPDAFVSVRAAKDDDSVTSLTNVLGSNTFNLLVAIPVGVLLAGRATIDFLVAIPTMGFLGAATLVFIVFIRTDLELTDREAYTLLGLYVVFVCWMALESVGLIETVSGI` ?
# output failed

# input Endpoint output: protein production of `MYEAGLAEGESAYGHGGYISVPELPAGVAVRNSRRPDIIQESSYLRILAPAGGWLAAATLEKLADCAETYGRGLVHLTSGGTIEIYTGREQMLPLVRELNSGGLDVGSTGDDLRCLTACCGPVRCEHALVDAPALATYLGQRFIDDQQYPGYPQKVKSAVAGCPNDCIRAMMQKDHSFIGVYRDWPMVDGEMLAAWREKGGDLNGLLAACPAGALTLVGDTLEVDKERCWRCMACINYCPAIRPGRERGVAWVAGGKYGHRGPQGPMVGFVLVPFIPVADDDYTAVGDIFGAFLEFWADNAKKKERVGDFIARVGPLKILRELGLEAQPQILLSPKRNVY` . Value?
# output failed

# input Data request, read-out protein production, for `MLEKELSFADLSISLSELYEAMGYADAVPDEAVEKEVRGVLGRVEAVTSPRFCFFISGGELDESKDSLSVGDTCFSIGKIITRQLRGSESFAFFAATAGTGFERFQHTLQQEGDMVKVYIADAIGSVIAEKTADCMEIALDEYIRDRGWRHTNRFSPGYCGWHVSEQKKLFPLFPSAEPCGIRLTDSGLMLPIKSVSGVIGLGDGVRKLEYTCGLCTYDRCYRRKQRGLEHHHHHH`
# output not failed

# input Give the measured protein production of `MSLTSVVFLNPGNSTETFWVSYSQFMQAAARDLGLDLRILYAERDPQNTLQQARELFQGRDKPDYLMLVNEQYVAPQILRLSQGSGIKLFIVNSPLTLDQRELIGQSRQNYSDWIGSMVGDDEEAGYRMLKELLHKLGPVPAGHGIELLAFSGLKVTPAAQLRERGLRRALAEHPQVHLRQLVYGEWNRERAYRQAQQLLKRYPKTQLVWSANDEMALGAMQAARELGRKPGTDLLFSGVNSSPEALQALIDGKLSVLEAGHFTLGGWALVALHDDALGLDARRLGGPDWQLSLFQALTPAQARQLLRLGDQVGTRVDFRGLSAQGKPDSYRYPFGLQLLLREGHHHHHH` .
# output not failed

# input Which protein production reading was recorded for the sequence `WKTGGRFLTLGVTLIMFIIVSNFLGLPFMYSATEAGEHIAWWRSPTSDPAVTLTLAVMVVTLTHYYGIKMKGTKEYVKGYFQPMKFLFPLKVIEEFANTLTLGLRLFGNIYAGEILLGLLAKLGGASFLGALGALVPMLAWMGFSVFVGSIQAFIFVMLTMVYMAHKVSHDH` ?
# output failed
